Attribution: ChEMBL document CHEMBL5055656

assay-procedure: Selectivity index, ratio of GI50 for human HaCaT mouse BALA/3T3 cells to GI50 for human A549 cells
Type: toxicity
test-context: read-out: RatioGI50
Known selectivity ratio of a selection of compounds
Answer as a number with no unit attached.

Reported selectivity ratio of COC(=O)c1[nH]c2ccc(F)cc2c1/C=C1\NC(=S)NC1=O : 2.03

Lookup result for COC(=O)c1[nH]c2ccc(F)cc2c1/C=C1\SC(=O)NC1=O ; measured selectivity ratio: 3.94

###

assay-procedure: Selectivity index, ratio of GI50 for mouse BALA/3T3 cells to GI50 for human HepG2 cells measured after 48 hrs by neutral red uptake assay
Assay type: toxicity
test-context: BALA/3T3 cells versus HepG2 cells, read-out: Selectivity Index
assay-readout: selectivity ratio at 48 h
Respond with the number and no other words.

// selectivity ratio at 48 h lookup, compound = COC(=O)c1[nH]c2ccc(F)cc2c1/C=C1\SC(=S)NC1=O , result: 4.1

###

assay-procedure: Selectivity index, ratio of GI50 for mouse BALA/3T3 cells to GI50 for human HepG2 cells measured after 24 hrs by coomassie brilliant blue staining based total cellular protein assay
Type: toxicity
test-context: BALA/3T3 cells versus HepG2 cells, read-out: Selectivity Index
assay-readout: selectivity ratio at 24 h
Respond with the number and no other words.

Looking up COC(=O)c1[nH]c2ccc(F)cc2c1/C=C1\SC(=S)NC1=O , I found its selectivity ratio at 24 h recorded as 1

###

System: A549
assay-procedure: Cytotoxicity against human A549 cells assessed as cell growth inhibition measured after 72 hrs by MTT assay
Format: functional
Note to self: use True only for GI50 readings below 40 µM; a reading exactly at 40 µM still gets False.

molecule	label-value
COC(=O)c1[nH]c2ccc(F)cc2c1/C=C1\SC(=S)NC1=O	True

Query: GI50 strictly < 40 µM for this molecule? COC(=O)c1[nH]c2ccc(F)cc2c1/C=C1\NC(=S)NC1=O
Reply: False

Query: Confirm or reject: GI50 of COC(=O)c1[nH]c2ccc(F)cc2c1/C=C1\SC(N)=NC1=O lies strictly below 40 µM
Reply: False

###

# Lookup of reported selectivity ratio keyed by entry
assay-procedure: Selectivity index, ratio of GI50 for human HaCaT cells to GI50 for human HepG2 cells
Type: toxicity
test-context: HaCaT cells versus HepG2 cells, read-out: RatioGI50

Use the examples below as a reference point.
input-smiles	selectivity ratio
COC(=O)c1[nH]c2ccc(F)cc2c1/C=C1\NC(=S)NC1=O	2.95
COC(=O)c1[nH]c2ccc(F)cc2c1/C=C1\SC(=O)NC1=S	1.41
COC(=O)c1[nH]c2ccc(F)cc2c1/C=C1\SC(N)=NC1=O	1.31
COC(=O)c1[nH]c2ccc(F)cc2c1/C=C1\SC(=S)NC1=O	5.75
COC(=O)c1[nH]c2ccc(F)cc2c1/C=C1\SC(=O)NC1=O	3.36

For record COC(=O)c1[nH]c2ccc(F)cc2c1C=O the listed selectivity ratio is 0.67

###

assay-procedure: Cytotoxicity against human HaCaT cells assessed as cell growth inhibition at 100 uM measured after 72 hrs by MTT assay relative to control
Assay type: cell-based
test-context: read-out: Activity
inhibition at 72 h, 100 µM values by entry
Respond with the bare value in %.

Answered examples (2):
input-smiles	assay-readout	experimental-value
COC(=O)c1[nH]c2ccc(F)cc2c1/C=C1\SC(=O)NC1=O	inhibition at 72 h, 100 µM	43.4
COC(=O)c1[nH]c2ccc(F)cc2c1/C=C1\SC(N)=NC1=O	inhibition at 72 h, 100 µM	20.2

// below: inhibition at 72 h, 100 µM requested for another compound
Record COC(=O)c1[nH]c2ccc(F)cc2c1/C=C1\NC(=S)NC1=O , field inhibition at 72 h, 100 µM: 43.3

###

assay-procedure: Cytotoxicity against mouse BALB/3T3 cells assessed as cell growth inhibition measured after 72 hrs by coomassie brilliant blue staining based total cellular protein assay
test-context: BALB/3T3 cells
assay-readout: GI50 at 72 h (µM)
Write it as a number; the unit µM goes unstated.

get_value(item= COC(=O)c1[nH]c2ccc(F)cc2c1/C=C1\SC(=S)NC1=O , readout=GI50 at 72 h) returns 48.3

###

assay-procedure: Selectivity index, ratio of GI50 for mouse BALA/3T3 cells to GI50 for human HeLa cells
Assay type: toxicity
test-context: BALA/3T3 cells versus HeLa cells, read-out: RatioGI50
Binary call on selectivity ratio with cut-off 2: strictly below means satisfied, and equality or higher means not satisfied.

Examples with answers:
input-smiles	label-value
COC(=O)c1[nH]c2ccc(F)cc2c1/C=C1\SC(=O)NC1=O	not satisfied
COC(=O)c1[nH]c2ccc(F)cc2c1/C=C1\NC(=S)NC1=O	satisfied
COC(=O)c1[nH]c2ccc(F)cc2c1/C=C1\SC(=S)NC1=O	satisfied
COC(=O)c1[nH]c2ccc(F)cc2c1C=O	satisfied
COC(=O)c1[nH]c2ccc(F)cc2c1/C=C1\SC(=O)NC1=S	satisfied

Query: Check if selectivity ratio falls below 2 for COC(=O)c1[nH]c2ccc(F)cc2c1/C=C1\SC(N)=NC1=O .
Reply: satisfied

###

assay-procedure: Cytotoxicity against mouse BALB/3T3 cells assessed as cell growth inhibition measured after 48 hrs by MTT assay
Type: cell-based
test-context: BALB/3T3 cells
assay-readout: GI50 at 48 h (µM)
Reply numerically in µM, unit not repeated.

// field: GI50 at 48 h; key: COC(=O)c1[nH]c2ccc(F)cc2c1/C=C1\SC(=S)NC1=O ; value = 25

###

assay-procedure: Cytotoxicity against mouse BALB/3T3 cells assessed as cell growth inhibition measured after 72 hrs by MTT assay
Assay type: cell-based
assay-readout: GI50 at 72 h (µM)
The reply should be a number in µM, with the unit left off.

Consider the following illustrative entries.
input-smiles	assay-readout	unit-text	experimental-value
COC(=O)c1[nH]c2ccc(F)cc2c1/C=C1\SC(=O)NC1=S	GI50 at 72 h	µM	89.2
COC(=O)c1[nH]c2ccc(F)cc2c1/C=C1\SC(N)=NC1=O	GI50 at 72 h	µM	30.3
COc1cccc2c1C(=O)c1c(O)c3c(c(O)c1C2=O)C[C@@](O)(C(=O)CO)C[C@@H]3O[C@H]1C[C@H](N)[C@H](O)[C@H](C)O1	GI50 at 72 h	µM	0.6
COC(=O)c1[nH]c2ccc(F)cc2c1/C=C1\SC(=S)NC1=O	GI50 at 72 h	µM	40.8

Pending compound:
Form field GI50 at 72 h, entry COC(=O)c1[nH]c2ccc(F)cc2c1C=O : 64

###

assay-procedure: Cytotoxicity against mouse BALB/3T3 cells assessed as cell growth inhibition measured after 48 hrs by coomassie brilliant blue staining based total cellular protein assay
test-context: BALB/3T3 cells
assay-readout: GI50 at 48 h

For this compound ( COC(=O)c1[nH]c2ccc(F)cc2c1/C=C1\SC(=S)NC1=O ), measured GI50 at 48 h is > 100 µM

###

assay-procedure: Cytotoxicity against mouse BALB/3T3 cells assessed as cell growth inhibition measured after 24 hrs by neutral red uptake assay
Assay type: cell-based
test-context: BALB/3T3 cells
assay-readout: GI50 at 24 h

compound COC(=O)c1[nH]c2ccc(F)cc2c1/C=C1\SC(=S)NC1=O , GI50 at 24 h observed: > 100 µM

###

selectivity ratio values, listed per item
assay-procedure: Selectivity index, ratio of GI50 for mouse BALA/3T3 cells to GI50 for human MCF7 cells
Assay type: toxicity
test-context: BALA/3T3 cells versus MCF7 cells, read-out: RatioGI50
Please give the numeric answer without any surrounding text.

input-smiles	selectivity ratio
COC(=O)c1[nH]c2ccc(F)cc2c1/C=C1\SC(=O)NC1=O	1.24

Entry COC(=O)c1[nH]c2ccc(F)cc2c1C=O — recorded selectivity ratio = 0.67

Recorded result, COC(=O)c1[nH]c2ccc(F)cc2c1/C=C1\NC(=S)NC1=O , selectivity ratio: 1.57

Looking up COC(=O)c1[nH]c2ccc(F)cc2c1/C=C1\SC(=O)NC1=S , I found its selectivity ratio recorded as 1.64

selectivity ratio for COC(=O)c1[nH]c2ccc(F)cc2c1/C=C1\SC(N)=NC1=O is 0.96

GET /value?item= COC(=O)c1[nH]c2ccc(F)cc2c1/C=C1\SC(=S)NC1=O &field=selectivity ratio returns 99.4

###

assay-procedure: Cytotoxicity against mouse BALB/3T3 cells assessed as cell growth inhibition measured after 24 hrs by LDH assay
Assay type: cell-based
test-context: BALB/3T3 cells
assay-readout: GI50 at 24 h

For this compound ( COC(=O)c1[nH]c2ccc(F)cc2c1/C=C1\SC(=S)NC1=O ), measured GI50 at 24 h is > 100 µM

###

assay-procedure: Selectivity index, ratio of GI50 for mouse BALA/3T3 cells to GI50 for human HCT-116 cells
Format: toxicity
test-context: BALA/3T3 cells versus HCT-116 cells, read-out: RatioGI50
// label = Condition met if selectivity ratio is not less than 2, otherwise Condition not met

Reference set, count: 3
input-smiles	label-value
COC(=O)c1[nH]c2ccc(F)cc2c1/C=C1\SC(=O)NC1=S	Condition not met
COC(=O)c1[nH]c2ccc(F)cc2c1C=O	Condition not met
COC(=O)c1[nH]c2ccc(F)cc2c1/C=C1\SC(=S)NC1=O	Condition met

Query: Assess whether reported selectivity ratio for COC(=O)c1[nH]c2ccc(F)cc2c1/C=C1\SC(N)=NC1=O sits at 2 or higher.
Reply: Condition met

Query: selectivity ratio >= 2 for COC(=O)c1[nH]c2ccc(F)cc2c1/C=C1\SC(=O)NC1=O ?
Reply: Condition not met

Query: Say whether COC(=O)c1[nH]c2ccc(F)cc2c1/C=C1\NC(=S)NC1=O shows selectivity ratio of 2 or more.
Reply: Condition not met
